These measurements were taken from PubChem BioAssay (NCI).

- Tested on: HL-60(TB) leukemia
- ASSAY DETAILS: NCI tumour cell line growth inhibition, 48 h
MEASUREMENT LABEL: TGI

As a guide, the following entries are already answered.
compound=CCCc1c2c3ccccc3nc-2nc2ccccn12 result_value="> 100 µM"
compound="CC1=C2C(c3ccccc3)(c3ccccc3)C3C=CC2(C=N3)N(C(=O)NC2CCCCC2)C1=O (stereo not given)" result_value="30.2 µM"

Would you be so kind as to report TGI for each listed record?
1. CN1CCN(c2ccc3[nH]c(C4=C(O)c5nc(CO)n(C)c5C(=O)C4=O)nc3n2)CC1
2. CCN(CC)CCCNC(=O)Cc1ccccc1Nc1c(Cl)cccc1Cl
3. Oc1ccccc1-n1c(-c2ccccc2)ccc1-c1ccccc1
4. COc1cc2c(c(OC)c1OC)C(=O)CC2N (stereo not given)
5. Cc1ccc(N2C(=O)/C(=C3\Sc4c(nc(C)[nH]c4=O)N3c3ccccc3)SC2=S)cc1
6. C=C1C(=O)OC2/C=C(\C)C(O)/C=C\C(C)(O)CC(OC(=O)/C(C)=C/C)C12 (stereo not given)
7. CC[C@@H]1OC2(C)CC(S(=O)(=O)c3ccccc3)CC1O2 (stereo not given in full)
8. COc1ccc(/C=C2\N=C3SC=C(N)N3C2=O)cc1

1: > 100 µM; 2: 27.5 µM; 3: > 100 µM; 4: > 100 µM; 5: > 100 µM; 6: > 64 µM; 7: > 100 µM; 8: 4.6 µM

Would you be so kind as to report TGI for each listed record?
1. Cn1cnc([N+](=O)[O-])c1Sc1ncnc2c1ncn2C1OC(CO)C(O)C1O (stereo not given)
2. Cc1ccc(S(=O)(=O)N/N=C2\C=C[C@]3(CC2)C(=O)N(C)c2ccccc23)cc1
3. NNC(=O)c1n[nH]nc1SSc1n[nH]nc1C(=O)NN
4. CO[C@H]1O[C@@H]2CO[C@@H](c3ccccc3)O[C@H]2C[C@]12CCC/C=C\CO2

1. > 100 µM
2. > 100 µM
3. > 100 µM
4. 54.7 µM

Note to self: TGI recorded for Cc1cc(C)c(C(=O)OC(c2ccccc2)C(c2ccccc2)N2CCOCC2)c(C)c1 (stereo not given) was > 100 µM

* * *

- System: SK-MEL-5 melanoma
- ASSAY DETAILS: NCI tumour cell line growth inhibition, 48 h
Where a SMILES comes first, the peptide text is derived from it. The star is where a group is joined. Cbz = O=C(OCc1ccccc1)*
Give TGI for every item shown.

Would you be so kind as to report TGI for each listed record?
1. C#CCOC(=O)c1ccccc1OC(C)=O
2. O=C1c2ccccc2C(=O)N1c1ccc(OCCN2CCCCC2)cc1
3. CCOC(=O)C(C)NC(=O)C(C)NC(=O)C(C)NC(=O)C(C)NC(=O)C(C)NC(=O)C(C)NC(=O)C(C)NC(=O)OCc1ccccc1 (stereo unspecified) (Cbz-AAAAAAA-OEt; configuration not given here)
4. O=c1[nH]c(-c2ccc(C(F)(F)F)cc2)nc2c1CSCC2
5. NC(=O)N(O)c1cccc(Br)c1
6. Nc1cccc(OCc2nc(N)nc(N)c2-c2ccc(Cl)cc2)c1
7. Nc1ccn(C2OC(COP(=O)(O)Oc3ccccc3)C(O)C2O)c(=O)n1 (stereo unspecified)
8. CCOC(=O)c1c(SCCO)n(-c2ccccc2)c(=S)n(-c2ccccc2)c1=O

1. > 100 µM
2. > 100 µM
3. > 100 µM
4. > 100 µM
5. > 100 µM
6. > 100 µM
7. > 100 µM
8. > 100 µM

Would you be so kind as to report TGI for each listed record?
1. N#Cc1c(NC(=S)NCc2ccccc2)sc2c1CCN(N1CCc3c(sc(NC(=S)NCc4ccccc4)c3C#N)C1)C2
2. COc1ccc(NC2=NCCO2)c2ccccc12
3. NNC(=O)c1n[nH]nc1SSc1n[nH]nc1C(=O)NN
4. S=C1C=C(c2ccccc2)Sc2ccccc2N1
5. CCCc1c2c3ccccc3nc-2nc2ccccn12
6. CC(C)(C)OC(=O)N1CCC23CCCC2C(=O)CC=C13 (stereo unspecified)

1. > 100 µM
2. > 10 µM
3. > 100 µM
4. > 100 µM
5. > 100 µM
6. > 100 µM
